- Tested on: Staphylococcus epidermidis HCF Berset C.
Measured metric: log10 MIC (log10 of the value in µg/mL)
Quick note: numbers are log10 of MIC, with µg/mL as the unit.

INSERT INTO results (molecule, measured_metric, endpoint_result) VALUES
  ('CN1CCN(c2c(N)c(N)c3c(=O)c(C(=O)O)cn(C4CC4)c3c2F)CC1 [Compound 28]', 'log10 MIC', 0.60),
  ('CN1CCN(c2cc3c(cc2N)c(=O)c(C(=O)O)cn3C(C)(C)C)CC1 [Compound 44]', 'log10 MIC', 0.60),
  ('Cc1c(N2CCSCC2)c(N)cc2c(=O)c(C(=O)O)cn(C3CC3)c12 [Compound 35]', 'log10 MIC', 0.00),
  ('CC1CN(c2cc3c(cc2N)c(=O)c(C(=O)O)cn3C2CC2)CCN1 (stereo not drawn) [Compound 14]', 'log10 MIC', 0.60),
  ('CN1CCN(c2nc3c(cc2N)c(=O)c(C(=O)O)cn3C2CC2)CC1 [Compound 40]', 'log10 MIC', 0.60),
  ('CN1CCN(c2c(N)cc3c(=O)c(C(=O)O)cn(C4CC4)c3c2F)CC1 [Compound 22]', 'log10 MIC', 0.90),
  ('Nc1cc2c(=O)c(C(=O)O)cn(C3CC3)c2cc1N1CCNCC1 [Compound 9]', 'log10 MIC', 1.20),
  ('Nc1cc2c(=O)c(C(=O)O)cn(C3CC3)c2cc1N1CCSCC1 [Compound 15]', 'log10 MIC', 0.30);

Return reported log10 MIC values for all items listed beneath this line.
1. CN1CCN(c2c(F)cc3c(=O)c(C(=O)O)cn4c3c2SCC4)CC1 [RUFLOXACIN, reference compound]
2. Nc1cc2c(=O)c(C(=O)O)cn(C3CC3)c2cc1N1CCC(O)CC1 [Compound 16]
3. Cc1c(N2CCc3ccccc3C2)c(N)cc2c(=O)c(C(=O)O)cn(C3CC3)c12 [Compound 36]
4. Nc1cc2c(=O)c(C(=O)O)cn(C3CC3)c2cc1N1CCCC1 [Compound 10]
5. Cc1c(N2CCN(C)CC2)c(N)cc2c(=O)c(C(=O)O)cn(C3CC3)c12 [Compound 33]
6. CC1CN(c2cc3c(cc2N)c(=O)c(C(=O)O)cn3C2CC2)CC(C)N1 (stereo not drawn) [Compound 11]

A.
0.30
0.60
0.30
2.11
-0.30
0.60

Return reported log10 MIC values for all items listed beneath this line.
1. Nc1cc2c(=O)c(C(=O)O)cn(C3CC3)c2c(F)c1N1CCSCC1 [Compound 23]
2. CN1CCN(c2cc3c(cc2N)c(=O)c(C(=O)O)cn3-c2ccc(F)cc2)CC1 [Compound 50]
3. CC(C)(C)n1cc(C(=O)O)c(=O)c2cc(N)c(N3CCN(c4ccccn4)CC3)cc21 [Compound 48]
4. Cc1c(N2CCNCC2)c(N)cc2c(=O)c(C(=O)O)cn(C3CC3)c12 [Compound 34]

A.
0.00
0.90
0.30
0.30

###

- Tested on: Gram -
- Test details: MIC test, average over the 15 gram-negative test germs
- Type: cell-based
- Assay conditions: 24 h; mean log of the MIC over the 15 Gram - strains; read-out: Log (converted)
Give MIC for every item shown.
Answers are plain numbers, in µg/mL.

INSERT INTO results (compound, measured_metric, readout_units, endpoint_result) VALUES
  ('CN1CCN(c2cc3c(cc2N)c(=O)c(C(=O)O)cn3C2CC2)CC1', 'MIC', 'µg/mL', 0.861),
  ('Nc1cc2c(=O)c(C(=O)O)cn(-c3ccc(F)cc3)c2cc1N1CCc2ccccc2C1', 'MIC', 'µg/mL', 4.56),
  ('CC(C)(C)n1cc(C(=O)O)c(=O)c2cc(N)c(N3CCc4ccccc4C3)cc21', 'MIC', 'µg/mL', 4.78),
  ('CC(C)(C)n1cc(C(=O)O)c(=O)c2cc(N)c(N3CCSCC3)cc21', 'MIC', 'µg/mL', 1.31),
  ('CC(C)(C)n1cc(C(=O)O)c(=O)c2cc(N)c(N3CCN(c4ccccn4)CC3)cc21', 'MIC', 'µg/mL', 19.2),
  ('Nc1cc2c(=O)c(C(=O)O)cn(C3CC3)c2cc1N1CCNCC1', 'MIC', 'µg/mL', 1.26),
  ('CN1CCN(c2cc3c(cc2N)c(=O)c(C(=O)O)cn3-c2ccc(F)cc2)CC1', 'MIC', 'µg/mL', 3.48);

Note: attention shifts to another entry.
# MIC (compound: CC1CN(c2cc3c(cc2N)c(=O)c(C(=O)O)cn3C2CC2)CCN1 (centres unmarked) ) is 0.679
